Assay Name: Phase I study CXR1002-001: plasma pharmacokinetics (LC-MS/MS)
Type: in vivo, human
Assay Conditions: human, plasma, oral, 600 mg, Patient 020, 600 mg, person, plasma, 674 hr; read-out: Concentration
Measured Property: concentration at 674 h (µM)

{"columns": ["Compound", "Unit Label", "Numeric Readout"],
 "data": [
  ["O=C(O)C(F)(F)C(F)(F)C(F)(F)C(F)(F)C(F)(F)C(F)(F)C(F)(F)F [CXR1002]", "µM", 547]
]}

====

Assay Name: Phase I study CXR1002-001: plasma pharmacokinetics (LC-MS/MS)
Type: in vivo, human
Assay Conditions: human, plasma, po, 1200 mg, Patient 036, 1200 mg weekly oral dose, Time 844 hr; read-out: Concentration (plasma level)
Measured Property: concentration at 844 h (µM)

{"columns": ["Structure As Smiles", "Measured Property", "Numeric Readout"],
 "data": [
  ["O=C(O)C(F)(F)C(F)(F)C(F)(F)C(F)(F)C(F)(F)C(F)(F)C(F)(F)F", "concentration at 844 h", 1230]
]}

Source of measurements: patent US20130029928A1
